test system: Mannheimia haemolytica; test: minimum inhibitory concentration (MIC); conditions: isolate (source animal id): 298
measurement-type: minimum inhibitory concentration

The examples below pair each entry with its known result.
molecule: CC[C@H]1OC(=O)C[C@@H](O)[C@H](C)[C@@H](O[C@@H]2O[C@H](C)[C@@H](O)[C@H](N(C)C)[C@H]2O)[C@@H](CCN2C[C@H](C)C[C@H](C)C2)C[C@@H](C)C(=O)/C=C/C(C)=C/[C@@H]1CO[C@@H]1O[C@H](C)[C@@H](O)[C@@H](OC)[C@H]1OC [Tilmicosin]
minimum inhibitory concentration: > 16 µg/mL
//
molecule: CCC[C@@H]1C[C@@H](C(=O)N[C@@H]([C@H]2O[C@H](SC)[C@H](O)[C@@H](O)[C@H]2O)[C@H](C)Cl)N(C)C1 [Clindamycin]
minimum inhibitory concentration: > 16 µg/mL
//
molecule: NC[C@@H]1O[C@H](O[C@H]2[C@@H](O)[C@H](O[C@@H]3[C@@H](O)[C@H](N)C[C@H](N)[C@H]3O[C@H]3O[C@H](CN)[C@@H](O)[C@H](O)[C@H]3N)O[C@@H]2CO)[C@H](N)[C@@H](O)[C@@H]1O [Neomycin]
minimum inhibitory concentration: > 32 µg/mL

IN: Request: minimum inhibitory concentration, test system Mannheimia haemolytica, entry CO/N=C(\C(=O)N[C@@H]1C(=O)N2C(C(=O)O)=C(CSC(=O)c3ccco3)CS[C@H]12)c1csc(N)n1 [Ceftiofur]
OUT: ≤ 0.25 µg/mL

IN: Request: minimum inhibitory concentration, test system Mannheimia haemolytica, entry CNC(C)C1CCC(N)C(OC2C(N)CC(N)C(OC3OCC(C)(O)C(NC)C3O)C2O)O1 (stereo unspecified) [Gentamicin]
OUT: 2 µg/mL

IN: Request: minimum inhibitory concentration, test system Mannheimia haemolytica, entry CC[C@H]1OC(=O)C[C@@H](O)[C@H](C)[C@@H](O[C@@H]2O[C@H](C)[C@@H](O)[C@H](N(C)C)[C@H]2O)[C@@H](CCN2CCCCC2)C[C@@H](C)C(=O)/C=C/C(C)=C/[C@@H]1CN1CCCCC1 [Tildipirosin]
OUT: > 16 µg/mL

---

tested on: Mannheimia haemolytica; experiment: minimum inhibitory concentration (MIC); settings: isolate (source animal id): 154
Quick reference for minimum inhibitory concentration among some compounds
Report as a plain number; the unit µg/mL is understood.

The examples below pair each entry with its known result.
compound: CNC(C)C1CCC(N)C(OC2C(N)CC(N)C(OC3OCC(C)(O)C(NC)C3O)C2O)O1 (stereo not given)
numeric-readout: 2
--
compound: C=C[C@]1(C)C[C@@H](OC(=O)CSCCN(CC)CC)[C@]2(C)[C@H](C)CC[C@]3(CCC(=O)[C@H]32)[C@@H](C)[C@@H]1O
numeric-readout: 16
--
compound: NC[C@@H]1O[C@H](O[C@H]2[C@@H](O)[C@H](O[C@@H]3[C@@H](O)[C@H](N)C[C@H](N)[C@H]3O[C@H]3O[C@H](CN)[C@@H](O)[C@H](O)[C@H]3N)O[C@@H]2CO)[C@H](N)[C@@H](O)[C@@H]1O
numeric-readout: 8

Alright, here's another compound for you.
IN: Field request: minimum inhibitory concentration | item: CC[C@H]1OC(=O)C[C@@H](O)[C@H](C)[C@@H](O[C@@H]2O[C@H](C)[C@@H](O)[C@H](N(C)C)[C@H]2O)[C@@H](CCN2C[C@H](C)C[C@H](C)C2)C[C@@H](C)C(=O)/C=C/C(C)=C/[C@@H]1CO[C@@H]1O[C@H](C)[C@@H](O)[C@@H](OC)[C@H]1OC
OUT: 8

Cited source for all entries: the supplement of paper PMC8612539
